tested.target: T1, amyloid-β (1–42) (UniProt P05067 672-713)
T1 construct: also called Aβ42; Aβ (1–42); source: bought: Bachem (Bubendorf, Switzerland); suspended in HFIP, lyophilized
experimental.details: SPR; Biacore T200; Aβ42 immobilised on a CM-5 chip by amine coupling (900 RU); peptides as analytes 50 to 0.02 μM; 10 mM HEPES + 50 mM NaCl + 0.05% Tween 20, 25 °C, 30 μL/min; multicycle; steady-state affinity model
details: both partners purified
No end group written: not given here.
measured.quantity: Kd (µM)

1. Ac-KMDSRWRWKSSKK (not fully specified (C-terminus); also: methylated at the C-terminus, […]; L-amino acids; source: synthetic peptide (Genscript, purity >95%)) [crotamine derivative peptide CDP-2] : 3.25
